# Test: Single dose study in sickle Townes mice: exposure in whole blood
# Assay type: in vivo
# Applied conditions: male, Townes (sickle cell disease model), mouse, single dose 300 mg/kg oral gavage, SCD mice, n=3
Endpoint label: concentration at 0.5 h (µM)
Give the quantity in µM, number only.

Q: Find the recorded concentration at 0.5 h belonging to `C[C@H](Oc1cc2cc(F)cc(F)c2nc1N)c1cc(C(=O)O)ccc1-n1cccn1` and report it.
A: 1140

* * *

# Experimental target: HbS (Homo sapiens, UniProt P68871+P69905, E7V)
# Construct: HbS was obtained from the blood of homozygous S/S patients
# Test: 'R'-'T' assay (conversion of oxy HbS to deoxy HbS under deoxygenating conditions)
# Applied conditions: 50% inhibition of HbS 'R'-'T' conversion; 3 uM HbS, <1% O2
Simple rule here: IC50 less than 4 µM is true (1), otherwise false (0).

Q: Is IC50 of `C[C@H](Oc1cc2cc(F)ccc2nc1N)c1nc(OCC(=O)O)ccc1-n1cccn1` strictly below 4 µM?
A: false (0)

Q: I wonder whether `C[C@H](Oc1cc2cc(F)ccc2nc1N)c1cc(C(=O)O)c(F)cc1-n1cccn1` has IC50 below 4 µM. Can you tell?
A: false (0)

Q: Regarding `COc1ccc(-n2cccn2)c([C@H](C)Oc2cc3cc(F)cc(F)c3nc2N)n1` , kindly confirm whether its IC50 is beneath 4 µM.
A: false (0)

Q: Bench note: check whether `C[C@H](Oc1cc2cc(F)ccc2nc1N)c1cc(NS(C)(=O)=O)ccc1-n1cccn1` shows IC50 below 4 µM
A: false (0)

* * *

# Experimental target: Hb in human whole blood (Homo sapiens, UniProt P68871+P69905)
# Construct: measured in human, dog, and mouse whole blood; from tissue; host or cells: human whole blood
# Test: Whole blood oxygen affinity assay (Hemox analyzer), human blood
# Applied conditions: 1 mM compound, 1 hour at 25 C, relative to DMSO
Known Reduction in p20 (%) Human of a selection of molecules

* C[C@H](Oc1cc2cc(F)cc(F)c2nc1N)c1cc(C(=O)O)ccc1-n1cccn1 | 25 ± 9%

Q: Entry `C[C@H](Oc1cc2cc(C(N)=O)ccc2nc1N)c1ncc(F)cc1-n1cccn1` , system Hb in human whole blood (Homo sapiens, UniProt P68871+P69905): what Reduction in p20 (%) Human was measured?
A: 70 ± 4%

* * *

# Experimental target: purified sickle cell hemoglobin (HbS) (Homo sapiens, UniProt P68871+P69905, E7V)
# Construct: HbS was obtained from the blood of homozygous S/S patients
# Test: Binding affinity to purified HbS by Surface Plasmon Resonance (SPR)
# Applied conditions: crosslinked biotinylated HbS, 1:1 binding model
Kd values by entry

Some solved cases for reference:
* C[C@H](Oc1cc2cc(F)ccc2nc1N)c1nc(OCCO)ccc1-n1cccn1 [Example 41] | 44 nM
* C[C@H](Oc1cc2cc(F)ccc2nc1N)c1nc(C(=O)O)c(F)cc1-n1cccn1 [Example 39] | 464 nM
* C[C@H](Oc1cc2c(F)ccc(F)c2nc1N)c1cc(C(=O)O)ccc1-n1cccn1 [Example 19] | 64 nM
* C[C@H](Oc1cc2cc(F)cc(F)c2nc1N)c1cc(C(=O)NS(C)(=O)=O)ccc1-n1cccn1 [Example 24] | 15 nM

Read the next record carefully.
Q: # lookup: Kd of C[C@H](Oc1cc2cc(C(N)=O)ccc2nc1N)c1cc2[nH]ncc2cc1-n1cccn1 [Example 61]
A: 36 nM
